Values compiled from patent US5292736A.

Target: cannabinoid receptor (Rattus norvegicus)
Construct: Brain tissue from rats was homogenized; from tissue; host or cells: rat brain, washed homogenate membranes
Sequence (P20272 whole entry): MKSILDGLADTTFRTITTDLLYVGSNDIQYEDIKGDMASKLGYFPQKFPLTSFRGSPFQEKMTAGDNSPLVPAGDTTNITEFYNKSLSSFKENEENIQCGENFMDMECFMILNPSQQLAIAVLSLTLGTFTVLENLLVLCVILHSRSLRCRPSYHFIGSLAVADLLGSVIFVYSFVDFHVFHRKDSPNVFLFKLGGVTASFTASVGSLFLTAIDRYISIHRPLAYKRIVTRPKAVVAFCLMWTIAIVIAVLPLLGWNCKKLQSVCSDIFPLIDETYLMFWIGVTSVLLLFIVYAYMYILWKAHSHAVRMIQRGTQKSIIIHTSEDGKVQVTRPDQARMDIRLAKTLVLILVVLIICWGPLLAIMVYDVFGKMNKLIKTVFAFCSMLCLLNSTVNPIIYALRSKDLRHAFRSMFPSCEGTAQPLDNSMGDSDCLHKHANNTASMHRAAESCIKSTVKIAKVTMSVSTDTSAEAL
Assay: cannabinoid receptor binding test (CR), predictive of antiglaucoma activity
Settings: 1 μM; rat brain membranes, pH 7.0, 30° C., 90 min
Listed compounds paired with reported inhibition at 1 µM
Measure Name: inhibition at 1 µM (%)

1. CSc1ccc(C=C2C=C(CCN3CCOCC3)c3ccccc32)cc1; 96
2. COc1ccc(C=C2C(C)=C(CCN3CCOCC3)c3ccccc32)cc1; 45
3. C(=C1C=C(CCCN2CCOCC2)c2ccccc21)c1cccc2ccccc12; 97
4. C(=C1C=C(CCN2CCOCC2)c2ccccc21)c1ccccc1; 33
5. Oc1ccc(C=C2C=C(CCN3CCOCC3)c3ccccc32)c2ccccc12; 97
6. COc1ccc(C(=O)OC(=C2C=C(CCN3CCOCC3)c3ccccc32)c2ccc(OC)cc2)cc1; 51
7. C(=Cc1ccccc1)C=C1C=C(CCN2CCOCC2)c2ccccc21; 68
8. N#Cc1ccc(C=C2C=C(CCN3CCOCC3)c3ccccc32)cc1; 76
